# System: A704 (Kidney Carcinoma)
# Measurement notes: combination Emax (second highest fraction inhibited in the dose matrix, 72 h); higher = more inhibition; extreme values may be limits of the assay
Param threshold (0.5) applies to combination Emax; output true when value >= threshold, false when value < threshold.

[[record]]
compound = "C[C@@H](c1ccc2nccn2c1)n1nnc2ncc(-c3cnn(C)c3)nc21 [Savolitinib] + CC1(C)CCC(CN2CCN(c3ccc(C(=O)NS(=O)(=O)c4ccc(NCC5CCOCC5)c([N+](=O)[O-])c4)c(Oc4cnc5[nH]ccc5c4)c3)CC2)=C(c2ccc(Cl)cc2)C1 [Venetoclax] (first compound max 1 µM, 7x7, partner max 1 µM)"
label_value = "false"

[[record]]
compound = "CN(C)CCCOc1ccc(-c2ccc3ncc4c(c3c2)n(C2CCOCC2)c(=O)n4C)cn1 [AZD0156] + C[C@@H]1COCCN1C2=NC(=NC(=C2)C3(CC3)[S@](=N)(=O)C)C4=C5C=CNC5=NC=C4 [AZD6738] (first compound max 1 µM, 7x7, partner max 10 µM)"
label_value = "false"

[[record]]
compound = "COc1nnc2ccc(N3CCC(c4ccc(OCCN5CCN(C)C(=O)[C@H]5C)cc4)CC3)nn12 [AZD5153] + Cc1c2c(nn1C)CSCc1cc(n(C)n1)CSc1cc(c3ccccc3c1)OCCCc1c(C(=O)O)n(C)c3c-2c(Cl)ccc13 [AZD5991] (first compound max 1 µM, 7x7, partner max 1 µM)"
label_value = "true"

[[record]]
compound = "CC1(C)CCC(CN2CCN(c3ccc(C(=O)NS(=O)(=O)c4ccc(NCC5CCOCC5)c([N+](=O)[O-])c4)c(Oc4cnc5[nH]ccc5c4)c3)CC2)=C(c2ccc(Cl)cc2)C1 [Venetoclax] + CCN(CCO)CCCOc1ccc2c(Nc3cc(CC(=O)Nc4cccc(F)c4)[nH]n3)ncnc2c1 [AZD2811] (first compound max 1 µM, 7x7, partner max 1 µM)"
label_value = "false"

[[record]]
compound = "COc1cccc(OCCCN)c1-c1cc(Nc2cnc(C#N)cn2)n[nH]1 [Prexasertib] + CCc1c2c(nc3ccc(O)cc13)-c1cc3c(c(=O)n1C2)COC(=O)[C@]3(O)CC [SN-38] (first compound max 1 µM, 7x7, partner max 0.3 µM)"
label_value = "true"

[[record]]
compound = "NC1(C(=O)N[C@@H](CCO)c2ccc(Cl)cc2)CCN(c2ncnc3[nH]ccc23)CC1 [Capivasertib] + COc1nnc2ccc(N3CCC(c4ccc(OCCN5CCN(C)C(=O)[C@H]5C)cc4)CC3)nn12 [AZD5153] (first compound max 10 µM, 7x7, partner max 1 µM)"
label_value = "true"

